- Organism: Mus musculus
- protocol.summary: Maximal proliferation induced in the presence of the mitogen-PWM ( stimulated blastogenesis) in Mice cells at a dose of 10 ug/mL
- Type: functional
- Design: unit not given here
The entries below are paired with their reported Proliferative response.
readout.name: Proliferative response

>>> df
                                    molecule  recorded_value
 0   COc1ccc(C(=O)c2cc(N)ccc2N2CCC(C)CC2)cc1           121.8
 1  CNc1ccc(N2CCC(C)CC2)c(C(=O)c2ccc(Cl)cc2)c1            19.5
 2   CC1CCN(c2ccc(N)cc2C(=O)c2cccc(Cl)c2)CC1             105
 3  CC(C)(C)C1CCN(c2ccc(N)cc2C(=O)c2ccc(Cl)cc2)CC1           137.5
 4  CC1CCCN(c2ccc(N(C)C)cc2C(=O)c2ccc(Cl)cc2)C1 (stereo unspecified)            18.6
 5  CCCCC1CCN(c2ccc(N)cc2C(=O)c2ccc(Cl)cc2)CC1            81.7
 6  Nc1ccc(N2CCC(Cc3ccccc3)CC2)c(C(=O)c2ccc(Cl)cc2)c1            79.5
 7    Nc1ccc(N2CCCCC2)c(C(=O)c2ccc(Cl)cc2)c1            44.8
 8    Cc1cccc(C(=O)c2cc(N)ccc2N2CCC(C)CC2)c1           135.9
 9  CC1CCN(c2ccc(N)cc2C(=O)c2cccc(C(F)(F)F)c2)CC1            79.9
10  Nc1ccc(N2CCC(O)CC2)c(C(=O)c2ccc(Cl)cc2)c1            88.7
11      COc1ccc(C(=O)c2ccccc2N2CCC(C)CC2)cc1            15.5
12  CCC1CCN(c2ccc(N)cc2C(=O)c2ccc(Cl)cc2)CC1           114.6
13          CC1CCN(c2ccccc2C(=O)c2ccccc2)CC1            24.7
14  Nc1ccc(N2CCC(c3ccccc3)CC2)c(C(=O)c2ccc(Cl)cc2)c1           115.3
15  CC1CCN(c2ccc(N)cc2C(=O)c2ccc(Cl)cc2Cl)CC1           115.9

* * *

- System: Mus musculus
- protocol.summary: Proliferation induced by the mitogen alone-Concanavalin A (control blastogenesis), in mice cells dosed at 5 ug/mL
- Type: functional
- Parameters: unit not given here
Reported Proliferative response values are given for each entry in this list.
readout.name: Proliferative response

                                    compound  recorded_value
 0  Cc1cc(C(=O)c2cc(N)ccc2N2CCC(C)CC2)cc(C)c1C           152.6
 1  CC1CCN(c2ccc(N)cc2C(=O)c2ccc(Cl)cc2)CC1C (stereo unspecified)            48.6
 2  CC1CCCN(c2ccc(N(C)C)cc2C(=O)c2ccc(Cl)cc2)C1 (stereo unspecified)            17.6
 3  CC1CCN(c2ccc(N)cc2C(=O)c2cccc(C(F)(F)F)c2)CC1             332
 4          CC1CCN(c2ccccc2C(=O)c2ccccc2)CC1            13.6
 5   CC1CCN(c2ccc(N)cc2C(=O)c2ccc(Br)cc2)CC1           118.7
 6   CC1CCN(c2ccc(N)cc2C(=O)c2ccc(Cl)cc2)CC1           194.5
 7  CC1CCCN(c2ccc(N)cc2C(=O)c2ccc(Cl)cc2)C1 (stereo unspecified)           124.4
 8    CC1CCN(c2ccc(N)cc2C(=O)c2ccc(F)cc2)CC1           268.2
 9  CCOC(=O)Nc1ccc(N2CCC(C)CC2)c(C(=O)c2ccc(Cl)cc2)c1               8
10  CC1CCN(c2ccc(N)cc2C(=O)c2ccc(Cl)c(Cl)c2)CC1           136.6

* * *

- System: Mus musculus
- protocol.summary: Percent of Thyl+ positive cells, in nude mice (in vivo)
- Format: functional
readout.name: Thylpositive cells (%)

In [3]: df
Out[3]:
                                 mol_smiles  recorded_value
0  Nc1ccc(N2CCC(c3ccccc3)CC2)c(C(=O)c2ccc(Cl)cc2)c1             5.5
1  CCCCC1CCN(c2ccc(N)cc2C(=O)c2ccc(Cl)cc2)CC1             3.5
2  CCOC(=O)Nc1ccc(N2CCC(C)CC2)c(C(=O)c2ccc(Cl)cc2)c1             3.4
3   CC1CCN(c2ccc(N)cc2C(=O)c2ccc(Cl)cc2)CC1             6.9

* * *

- System: Mus musculus
- protocol.summary: Maximal proliferation induced in the presence of the mitogen-Concanavalin A (stimulated blastogenesis) in mice cells dosed at 5 ug/mL
- Assay type: functional
- Set-up: unit not given here
readout.name: Proliferative response

>>> df
                                    compound  study_target            readout_name  recorded_value
 0      CC1CCN(c2ccccc2C(=O)c2ccc(Cl)cc2)CC1  Mus musculus  Proliferative response            62.7
 1  CCCCC1CCN(c2ccc(N)cc2C(=O)c2ccc(Cl)cc2)CC1  Mus musculus  Proliferative response           289.2
 2  CC1CCN(c2ccc(N)cc2C(=O)c2cccc(C(F)(F)F)c2)CC1  Mus musculus  Proliferative response           297.7
 3   CC1CCN(c2ccc(N)cc2C(=O)c2cccc(Cl)c2)CC1  Mus musculus  Proliferative response           343.8
 4  CCC1CCN(c2ccc(N)cc2C(=O)c2ccc(Cl)cc2)CC1  Mus musculus  Proliferative response             348
 5  CC1CCCN(c2ccc(N)cc2C(=O)c2ccc(Cl)cc2)C1 (stereo unspecified)  Mus musculus  Proliferative response           141.6
 6    CC1CCN(c2ccc(N)cc2C(=O)c2ccc(F)cc2)CC1  Mus musculus  Proliferative response           165.6
 7  CC1CCN(c2ccc(Cl)cc2C(=O)c2ccc(Cl)cc2)CC1  Mus musculus  Proliferative response            68.7
 8  CC1CCCCN1c1ccc(N)cc1C(=O)c1ccc(Cl)cc1 (stereo unspecified)  Mus musculus  Proliferative response             295
 9  CC1CCN(c2ccc([N+](=O)[O-])cc2C(=O)c2ccc(Cl)cc2)CC1  Mus musculus  Proliferative response            93.7
10    Cc1cccc(C(=O)c2cc(N)ccc2N2CCC(C)CC2)c1  Mus musculus  Proliferative response           414.1
11  Nc1ccc(N2CCC(Cc3ccccc3)CC2)c(C(=O)c2ccc(Cl)cc2)c1  Mus musculus  Proliferative response             308
12  Nc1ccc(N2CCC(O)CC2)c(C(=O)c2ccc(Cl)cc2)c1  Mus musculus  Proliferative response           281.1
13  CC(C)(C)C1CCN(c2ccc(N)cc2C(=O)c2ccc(Cl)cc2)CC1  Mus musculus  Proliferative response            31.9
14          CC1CCN(c2ccccc2C(=O)c2ccccc2)CC1  Mus musculus  Proliferative response               9
15  Nc1ccc(N2CCC(c3ccccc3)CC2)c(C(=O)c2ccc(Cl)cc2)c1  Mus musculus  Proliferative response           294.1
16  COc1ccc(C(=O)c2cc(N)ccc2N2CCC(C)CC2)cc1OC  Mus musculus  Proliferative response           158.4
17   CC1CCN(c2ccc(N)cc2C(=O)c2ccc(Cl)cc2)CC1  Mus musculus  Proliferative response           269.5
18      COc1ccc(C(=O)c2ccccc2N2CCC(C)CC2)cc1  Mus musculus  Proliferative response             165
19  CCOC(=O)Nc1ccc(N2CCC(C)CC2)c(C(=O)c2ccc(Cl)cc2)c1  Mus musculus  Proliferative response            16.3
20  CC1CCN(c2ccc(N)cc2C(=O)c2ccc(Cl)cc2Cl)CC1  Mus musculus  Proliferative response           246.2

* * *

- Organism: Mus musculus
- protocol.summary: Proliferation induced by the mitogen alone-PWM (control blastogenesis), in Mice cells at a dose of 10 ug/mL
- Assay type: functional
- Parameters: unit not given here
readout.name: Proliferative response

                                    compound  recorded_value
 0   COc1ccc(C(=O)c2cc(N)ccc2N2CCC(C)CC2)cc1           103.3
 1    Cc1cccc(C(=O)c2cc(N)ccc2N2CCC(C)CC2)c1            98.8
 2  CC1CCN(c2ccc(N)cc2C(=O)c2cccc(C(F)(F)F)c2)CC1              79
 3  CNc1ccc(N2CCC(C)CC2)c(C(=O)c2ccc(Cl)cc2)c1            20.3
 4  CC1CCN(c2ccc(N)cc2C(=O)c2ccc(Cl)cc2Cl)CC1           105.5
 5      COc1ccc(C(=O)c2ccccc2N2CCC(C)CC2)cc1            20.8
 6          CC1CCN(c2ccccc2C(=O)c2ccccc2)CC1            15.1
 7  CC1CCCN(c2ccc(N(C)C)cc2C(=O)c2ccc(Cl)cc2)C1 (stereo unspecified)            21.4
 8  CCCCC1CCN(c2ccc(N)cc2C(=O)c2ccc(Cl)cc2)CC1            78.4
 9    Nc1ccc(N2CCCCC2)c(C(=O)c2ccc(Cl)cc2)c1            47.7
10  Nc1ccc(N2CCC(Cc3ccccc3)CC2)c(C(=O)c2ccc(Cl)cc2)c1           108.2
